- System: MCF7 breast carcinoma cells
- measurement_notes: MTS assay
- Type: cell-based
- condition_notes: Homo sapiens, concentration giving 50% viable cell number
- Description: MTS assays measures the cytotoxicity of geldanamycin derivatives. […] After 2–4 hours, the formation of the formazan product was measured at 490 nm absorbance using a multiwell plate spectrophotometer. Background was determined by measuring the Abs 490 nm of cell culture medium and MTS-PMS in the absence of cells and was subtracted from all values. Percent viable cells was calculated as follows: % viable cells=(Abs at 490 nm treated cells/Abs at 490 nm untreated cells)×100 […]
test_readout: IC50 (nM)

Look up IC50 for this compound: Cc1cnc(Cn2nc(C)c3c(Cl)nc(N)nc32)c(C)c1Br [Example 28]
1000

a. Cc1cnc(Cn2nc(-c3ccccc3)c3c(Cl)nc(N)nc32)c(C)c1Br [Example 34]
b. Cc1cnc(Cn2ncc3c(Cl)nc(N)nc32)c(C)c1Cl [Example 9]
c. COc1c(C)c(Cl)nc(Cn2ncc3c(Cl)nc(N)nc32)c1C [Example 8]
Given 3 compounds, produce a descending ranking by IC50. Rank the items, then write their labels in that order.
a, c, b

1. Cc1c[n+]([O-])c(Cn2nc(-c3ccccc3)c3c(Cl)nc(N)nc32)c(C)c1Cl [Example 35]
2. COc1c(C)cnc(Cn2nc(C(C)C)c3c(Cl)nc(N)nc32)c1C [Example 31]
Rank 1 against 2 by their IC50 values and give the higher one. Return value: the label identifying the chosen record.
1
(1: 1000 nM, 2: 300 nM)
